# IC50 per entry
- target-entity: p110α/p85α (Homo sapiens (Human))
- Sequence (P42336 whole entry): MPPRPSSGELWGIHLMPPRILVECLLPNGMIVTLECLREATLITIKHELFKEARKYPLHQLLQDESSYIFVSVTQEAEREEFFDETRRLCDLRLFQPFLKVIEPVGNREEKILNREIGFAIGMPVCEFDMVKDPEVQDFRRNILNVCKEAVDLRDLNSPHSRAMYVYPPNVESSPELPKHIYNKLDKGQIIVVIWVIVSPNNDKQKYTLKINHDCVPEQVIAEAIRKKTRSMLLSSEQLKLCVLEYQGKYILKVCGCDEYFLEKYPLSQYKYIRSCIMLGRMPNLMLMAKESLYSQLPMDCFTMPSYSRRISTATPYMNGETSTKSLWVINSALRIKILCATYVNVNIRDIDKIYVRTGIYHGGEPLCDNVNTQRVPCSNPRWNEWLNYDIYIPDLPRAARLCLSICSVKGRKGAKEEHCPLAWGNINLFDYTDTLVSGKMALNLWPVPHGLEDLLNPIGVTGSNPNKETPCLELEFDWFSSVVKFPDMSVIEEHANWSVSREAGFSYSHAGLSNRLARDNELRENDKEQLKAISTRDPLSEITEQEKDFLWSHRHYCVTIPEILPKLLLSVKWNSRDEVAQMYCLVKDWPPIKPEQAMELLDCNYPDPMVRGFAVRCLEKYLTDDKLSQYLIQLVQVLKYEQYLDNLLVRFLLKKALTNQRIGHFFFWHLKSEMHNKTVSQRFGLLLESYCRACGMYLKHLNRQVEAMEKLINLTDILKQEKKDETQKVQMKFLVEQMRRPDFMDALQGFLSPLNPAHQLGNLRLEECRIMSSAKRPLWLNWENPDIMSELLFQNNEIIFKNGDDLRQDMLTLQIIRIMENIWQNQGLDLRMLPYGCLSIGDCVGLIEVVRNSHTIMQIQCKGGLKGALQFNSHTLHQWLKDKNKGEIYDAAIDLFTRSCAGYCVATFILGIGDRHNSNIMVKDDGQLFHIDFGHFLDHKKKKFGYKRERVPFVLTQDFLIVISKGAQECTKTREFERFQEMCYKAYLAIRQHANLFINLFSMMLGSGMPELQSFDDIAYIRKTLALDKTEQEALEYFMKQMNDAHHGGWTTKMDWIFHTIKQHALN
- Sequence (P27986 whole entry partner): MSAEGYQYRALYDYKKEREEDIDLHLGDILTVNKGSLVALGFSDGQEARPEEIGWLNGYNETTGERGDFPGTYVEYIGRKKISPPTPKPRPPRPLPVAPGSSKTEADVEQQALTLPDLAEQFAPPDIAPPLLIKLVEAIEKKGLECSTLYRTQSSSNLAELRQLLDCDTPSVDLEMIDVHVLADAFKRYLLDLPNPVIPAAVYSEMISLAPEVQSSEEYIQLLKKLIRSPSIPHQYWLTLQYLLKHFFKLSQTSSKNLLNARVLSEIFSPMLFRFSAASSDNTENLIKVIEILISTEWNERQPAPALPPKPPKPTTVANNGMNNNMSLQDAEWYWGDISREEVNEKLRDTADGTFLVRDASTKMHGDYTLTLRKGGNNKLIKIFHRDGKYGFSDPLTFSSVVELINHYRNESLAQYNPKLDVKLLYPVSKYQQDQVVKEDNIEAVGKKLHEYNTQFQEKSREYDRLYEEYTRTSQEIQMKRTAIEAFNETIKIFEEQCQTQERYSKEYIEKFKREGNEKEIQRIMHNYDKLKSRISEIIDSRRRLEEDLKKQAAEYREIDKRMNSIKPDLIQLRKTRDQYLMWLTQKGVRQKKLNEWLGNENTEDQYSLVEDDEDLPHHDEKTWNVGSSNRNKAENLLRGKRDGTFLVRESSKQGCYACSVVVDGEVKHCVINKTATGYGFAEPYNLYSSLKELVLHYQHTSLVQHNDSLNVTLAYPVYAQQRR
- method-notes: PI 3-Kinase (human) HTRF assay, p110α/p85α
- Type: biochemical
- experimental-parameters: in vitro; read-out: PI3K α IC50

Consider the reported IC50 for these compounds:
compound: C[C@@H]1CN(C2CN(c3cnc4ccc(-c5ccc6oc(N)nc6c5)cc4n3)C2)CCN1
recorded-measurement: < 100 nM
//
compound: CC(=O)Nc1nc2ccc(-c3ccc4nc(N)oc4c3)cc2s1
recorded-measurement: < 100 nM
//
compound: Nc1nc2cc(-c3ccc4ncc(N5CC(N6CCNC(=O)C6)C5)nc4c3)ccc2o1
recorded-measurement: < 100 nM
//
compound: Nc1nc2cc(-c3ccc4ncc(N5CCNC(C(F)(F)F)C5)nc4c3)ccc2o1 (centres unmarked)
recorded-measurement: < 100 nM
//
compound: Nc1nc2cc(-c3ccc4ncc(N5CC(n6cccn6)C5)nc4c3)ccc2o1
recorded-measurement: < 100 nM
//
compound: Nc1nc2ccc(-c3ccc4nnc(-c5ccncc5)n4c3)cc2o1
recorded-measurement: < 10000 nM
//
compound: CC1(C)CN(c2cnc3ccc(-c4ccc5oc(N)nc5c4)cc3n2)CCN1
recorded-measurement: < 1000 nM

Moving on to the next compound.
Qu. Answer with the recorded IC50 of Nc1ncc(-c2cnc3ccc(-c4ccc5oc(N)nc5c4)cc3n2)cn1 only.
Ans. < 1000 nM
